B1: CPEB3 Ribozyme (parent)
chain: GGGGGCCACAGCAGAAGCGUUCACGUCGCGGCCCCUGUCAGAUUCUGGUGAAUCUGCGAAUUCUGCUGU

- Variants of: B1
- method_description: self-cleavage, relative activity (ratio to wild type); higher = more cleavage; co-transcriptional
Record Criterion met whenever self-cleavage is at 0.3 or higher; record Criterion not met when lower.

Use the examples below as a reference point.
[
  {
    "sequence_data": "GGGGGCCACAGCAGAAGCGUUCACGUCGCGGGCCCUGUGAGAUUCUGGUGAAUCUGCGAAUUCUGCUGU [C32G C39G]",
    "assigned_category": "Criterion met"
  },
  {
    "sequence_data": "GGGGGCCACAGCAGAAGCGUUCACGUCGCGGCCCCUGUCAGAUUCUGGUGAAUCUGCGAACUCUGCGGU [U61C U67G]",
    "assigned_category": "Criterion met"
  }
]

Quick check: does GGGGGGCACAUCAGAAGCGUUCACGUCGCGGCCCCUGUCAGAUUCUGGUGAAUCUGCGAAUUCUGCUGU [C6G G11U] have self-cleavage greater than or equal to 0.3?
Criterion not met

Quick check: does GGGGGCCACAGCAGAAGCGUUCACUUUGCGGCCCCUGUCAGAUUCUGGUGAAUCUGCGAAUUCUGCUGU [G25U C27U] have self-cleavage greater than or equal to 0.3?
Criterion not met

Quick check: does GGGGGCCACAGCAGAAGCGUCCACGUCGCGGCCCCUGUCAGAUCCUGGUGAAUCUGCGAAUUCUGCUGU [U21C U44C] have self-cleavage greater than or equal to 0.3?
Criterion met

Quick check: does GGGGGCCACAGCAGAAGCGUUCACGUCGCGGCCCCUGUCAUAUUCUGGUGAAUCUGGGAAUUCUGCUGU [G41U C57G] have self-cleavage greater than or equal to 0.3?
Criterion met

Quick check: does GGGGGCCACAGCAGAAGCGUUCACCUCGCGGCCCCUGUCAGAUUCUGGUGAAUCUGCGAAUUGUGCUGU [G25C C63G] have self-cleavage greater than or equal to 0.3?
Criterion not met
